Assay: Pharmacokinetics in SD (Sprague Dawley) rats
Type: in vivo
Details: rat, plasma, po, female SD rats, p.o. 2 mg/kg, read-out: T1/2 (half-life) (converted)
MEASURE: half-life (h)
Give a bare numeral; the unit h is implied.

Consider the worked cases shown below.
| COMPOUND | VALUE UNIT | NUMERIC READOUT |
| --- | --- | --- |
| COc1ccc2c(c1S(=O)(=O)Nc1noc3cc(Cn4cccn4)c(F)c(OC)c13)OCCO2 [Compound 28] | h | 6.73 |
| COc1ccc2c(c1S(=O)(=O)Nc1noc3cc(Cn4cccn4)c(F)c(OC)c13)OCCC2(F)F [Compound 104] | h | 2.13 |
| COc1ccc2c(c1S(=O)(=O)Nc1noc3cc(Cn4cccn4)c(F)c(OC)c13)OCCN2C [Compound 109] | h | 9.73 |

## Input Entry under review: COc1ccc2c(c1S(=O)(=O)Nc1noc3cc(Cn4cccn4)c(F)c(OC)c13)OCC=C2 [Compound 101] . Reported half-life?
## Output 9.21

## Input Request the reported half-life associated with COc1ccc2c(c1S(=O)(=O)Nc1noc3cc(Cn4cccn4)c(F)c(OC)c13)OCCCO2 [Compound 114]
## Output 13

## Input Need half-life of COc1ccc2c(c1S(=O)(=O)Nc1noc3cc(Cn4cccn4)c(F)c(OC)c13)OCCCN2C [Compound 115] , thanks.
## Output 15.9

## Input Name the reported half-life value associated with the compound COc1ccc2c(c1S(=O)(=O)Nc1noc3cc(Cn4cccn4)c(F)c(OC)c13)OCCC2=O [Compound 42]
## Output 3.31

## Input Reported half-life, compound COc1ccccc1S(=O)(=O)Nc1noc2cc(Cn3cccn3)cc(OC)c12 [PF-8144, reference compound] : ____
## Output 3.79

###

Below are Ki values measured for KAT6B (Homo sapiens, UniProt Q8WYB5).

| MOLECULE | SUBJECT OF TEST | Ki |
| --- | --- | --- |
| COc1ccccc1S(=O)(=O)Nc1noc2cc(Cn3cccn3)cc(OC)c12 [PF-8144, reference compound] | KAT6B (Homo sapiens, UniProt Q8WYB5) | 5.18 nM |

Kindly consider the entry below.
## Input Fill in the recorded Ki for this molecule, with KAT6B (Homo sapiens, UniProt Q8WYB5) as test system: `COc1ccc2c(c1S(=O)(=O)Nc1noc3cc(Cn4cccn4)c(F)c(OC)c13)OCCCN2C`
Sequence (Q8WYB5 whole entry): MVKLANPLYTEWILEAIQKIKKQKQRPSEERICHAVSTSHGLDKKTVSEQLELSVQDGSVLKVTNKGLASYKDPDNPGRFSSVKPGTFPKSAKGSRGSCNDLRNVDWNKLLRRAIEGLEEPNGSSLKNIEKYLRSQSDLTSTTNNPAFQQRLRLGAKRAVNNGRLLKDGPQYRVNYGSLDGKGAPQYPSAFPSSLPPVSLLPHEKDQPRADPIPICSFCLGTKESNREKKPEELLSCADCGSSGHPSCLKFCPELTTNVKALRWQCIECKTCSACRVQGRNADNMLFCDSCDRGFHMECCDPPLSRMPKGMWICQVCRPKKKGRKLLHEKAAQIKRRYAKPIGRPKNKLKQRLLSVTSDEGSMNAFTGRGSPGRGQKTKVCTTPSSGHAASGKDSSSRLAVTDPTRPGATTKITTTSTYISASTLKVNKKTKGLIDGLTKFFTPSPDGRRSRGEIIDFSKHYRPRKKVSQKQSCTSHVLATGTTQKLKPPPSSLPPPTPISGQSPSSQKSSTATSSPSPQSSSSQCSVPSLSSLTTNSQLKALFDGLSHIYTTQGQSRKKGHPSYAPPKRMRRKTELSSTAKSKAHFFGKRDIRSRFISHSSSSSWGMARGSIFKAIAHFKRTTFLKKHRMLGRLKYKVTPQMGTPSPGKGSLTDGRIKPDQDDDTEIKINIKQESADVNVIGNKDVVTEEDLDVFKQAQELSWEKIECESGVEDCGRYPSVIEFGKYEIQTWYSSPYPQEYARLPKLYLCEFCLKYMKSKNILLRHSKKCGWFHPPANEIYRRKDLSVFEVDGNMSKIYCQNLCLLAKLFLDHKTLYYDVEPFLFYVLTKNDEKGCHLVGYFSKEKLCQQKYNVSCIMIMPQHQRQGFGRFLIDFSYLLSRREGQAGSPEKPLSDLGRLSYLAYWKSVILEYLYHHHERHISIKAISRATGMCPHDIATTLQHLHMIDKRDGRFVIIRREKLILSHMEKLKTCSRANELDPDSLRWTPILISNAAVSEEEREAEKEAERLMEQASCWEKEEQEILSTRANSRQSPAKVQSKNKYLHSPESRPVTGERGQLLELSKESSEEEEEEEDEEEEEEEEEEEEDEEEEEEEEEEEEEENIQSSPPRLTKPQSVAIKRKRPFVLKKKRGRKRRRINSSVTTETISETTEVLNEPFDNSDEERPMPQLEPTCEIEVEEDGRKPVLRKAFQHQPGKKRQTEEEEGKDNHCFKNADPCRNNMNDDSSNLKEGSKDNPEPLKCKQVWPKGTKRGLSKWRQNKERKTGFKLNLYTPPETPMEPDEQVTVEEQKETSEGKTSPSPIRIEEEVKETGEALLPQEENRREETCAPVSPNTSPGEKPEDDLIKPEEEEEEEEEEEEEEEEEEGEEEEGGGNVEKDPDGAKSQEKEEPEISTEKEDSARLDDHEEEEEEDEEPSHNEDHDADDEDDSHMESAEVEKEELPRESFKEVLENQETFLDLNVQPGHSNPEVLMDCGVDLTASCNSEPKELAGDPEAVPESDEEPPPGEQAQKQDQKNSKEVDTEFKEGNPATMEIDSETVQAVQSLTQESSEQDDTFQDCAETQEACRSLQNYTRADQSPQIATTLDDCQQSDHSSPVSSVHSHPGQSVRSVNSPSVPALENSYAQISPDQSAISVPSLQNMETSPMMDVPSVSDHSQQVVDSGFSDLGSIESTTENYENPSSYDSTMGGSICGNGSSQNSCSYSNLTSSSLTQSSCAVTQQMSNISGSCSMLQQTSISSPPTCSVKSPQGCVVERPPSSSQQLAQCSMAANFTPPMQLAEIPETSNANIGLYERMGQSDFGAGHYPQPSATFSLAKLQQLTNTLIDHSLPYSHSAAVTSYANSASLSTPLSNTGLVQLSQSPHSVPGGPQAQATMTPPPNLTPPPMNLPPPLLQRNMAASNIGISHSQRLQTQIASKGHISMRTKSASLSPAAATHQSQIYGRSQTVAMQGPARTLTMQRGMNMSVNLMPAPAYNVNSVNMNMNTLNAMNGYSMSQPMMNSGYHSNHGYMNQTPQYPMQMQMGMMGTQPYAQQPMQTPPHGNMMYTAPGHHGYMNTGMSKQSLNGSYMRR
## Output 6.48 nM

###

Assay: Pharmacokinetics in SD (Sprague Dawley) rats
Type: in vivo
Conditions: rat, plasma, iv, female SD rats, i.v. 1 mg/kg, read-out: CL (clearance rate)
MEASURE: log10(clearance) (log10 of the value in mL/min/kg)
Please note: log10 values; quantity clearance; unit mL/min/kg.

The cases that follow already have their log10(clearance) on record.
| COMPOUND | NUMERIC READOUT |
| --- | --- |
| COc1ccc2c(c1S(=O)(=O)Nc1noc3cc(Cn4cccn4)c(F)c(OC)c13)OCCCN2C [Compound 115] | -0.44 |
| COc1ccc2c(c1S(=O)(=O)Nc1noc3cc(Cn4cccn4)c(F)c(OC)c13)OCCO2 [Compound 28] | -0.12 |
| COc1ccc2c(c1S(=O)(=O)Nc1noc3cc(Cn4cccn4)c(F)c(OC)c13)OCCN2C [Compound 109] | -0.73 |
| COc1ccc2c(c1S(=O)(=O)Nc1noc3cc(Cn4cccn4)c(F)c(OC)c13)OCCCO2 [Compound 114] | -0.34 |
| COc1ccccc1S(=O)(=O)Nc1noc2cc(Cn3cccn3)cc(OC)c12 [PF-8144, reference compound] | -0.22 |
| COc1ccc2c(c1S(=O)(=O)Nc1noc3cc(Cn4cccn4)c(F)c(OC)c13)OCCC2(F)F [Compound 104] | 0.60 |
| COc1ccc2c(c1S(=O)(=O)Nc1noc3cc(Cn4cccn4)c(F)c(OC)c13)OCC=C2 [Compound 101] | -0.46 |

## Input Which log10(clearance) value is on record for COc1ccc2c(c1S(=O)(=O)Nc1noc3cc(Cn4cccn4)c(F)c(OC)c13)OCCC2=O [Compound 42] ?
## Output 0.23

###

Here's a batch of compounds along with measured Ki for UniProtKB Q92993.
Sequence (Q92993 whole entry): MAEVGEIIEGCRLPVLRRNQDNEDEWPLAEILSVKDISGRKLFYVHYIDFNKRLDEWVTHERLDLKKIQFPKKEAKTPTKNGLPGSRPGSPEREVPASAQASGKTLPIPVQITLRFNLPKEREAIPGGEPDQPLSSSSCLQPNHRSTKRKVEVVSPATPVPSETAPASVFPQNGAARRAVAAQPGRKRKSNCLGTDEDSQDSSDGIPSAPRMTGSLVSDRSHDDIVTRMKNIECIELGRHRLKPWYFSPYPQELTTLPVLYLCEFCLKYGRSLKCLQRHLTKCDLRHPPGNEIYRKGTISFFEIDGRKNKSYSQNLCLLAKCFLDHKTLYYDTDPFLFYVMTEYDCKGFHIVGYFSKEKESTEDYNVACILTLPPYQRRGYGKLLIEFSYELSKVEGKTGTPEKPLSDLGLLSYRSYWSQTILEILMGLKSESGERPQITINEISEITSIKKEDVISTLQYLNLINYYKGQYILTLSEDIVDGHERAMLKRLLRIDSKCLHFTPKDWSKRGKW
Kindly answer with a numeric value in nM, unit omitted.

## Input Please state recorded Ki (tested on UniProtKB Q92993) of COc1ccc2c(c1S(=O)(=O)Nc1noc3cc(Cn4cccn4)c(F)c(OC)c13)OCCN2C [Compound 109]
## Output 286

## Input Find Ki (UniProtKB Q92993) for the entry COc1ccc2c(c1S(=O)(=O)Nc1noc3cc(Cn4cccn4)c(F)c(OC)c13)OCC=C2 [Compound 101]
## Output 79.6

## Input API: value(readout= Ki, system= UniProtKB Q92993, query= COc1ccc2c(c1S(=O)(=O)Nc1noc3cc(Cn4cccn4)c(F)c(OC)c13)OCCO2 [Compound 28] )
## Output 649

## Input Find Ki (UniProtKB Q92993) for the entry COc1ccccc1S(=O)(=O)Nc1noc2cc(Cn3cccn3)cc(OC)c12 [PF-8144, reference compound]
## Output 672

## Input Ki of COc1ccc2c(c1S(=O)(=O)Nc1noc3cc(Cn4cccn4)c(F)c(OC)c13)OCCN2S(C)(=O)=O [Compound 121] on UniProtKB Q92993?
## Output 577

###

Test: Pharmacokinetics in SD (Sprague Dawley) rats
Type: in vivo
Conditions: rat, plasma, iv, female SD rats, i.v. 1 mg/kg, read-out: Vdss (apparent volume of distribution)
Description: Test Example 3: Determination of Pharmacokinetic Data of Compounds in SD (Sprague Dawley) Rats The pharmacokinetic characteristics of some of the compounds of the present disclosure were evaluated by a pharmacokinetic experiment in SD rats. Female SD rats aged 6-8 weeks from Shanghai Jihui Laboratory Animal Care Co., Ltd. were selected. […] The concentration of the corresponding test compound in the SD rat plasma was determined using UPLC-MS/MS.
MEASURE: Vd (L/kg)
Express the result in L/kg but write the number alone.

Please review the following examples before continuing.
| COMPOUND | VALUE UNIT | NUMERIC READOUT |
| --- | --- | --- |
| COc1ccc2c(c1S(=O)(=O)Nc1noc3cc(Cn4cccn4)c(F)c(OC)c13)OCCCO2 [Compound 114] | L/kg | 0.608 |
| COc1ccc2c(c1S(=O)(=O)Nc1noc3cc(Cn4cccn4)c(F)c(OC)c13)OCCC2(F)F [Compound 104] | L/kg | 0.705 |

Moving on to another compound below.
## Input Would you mind telling me what Vd value was observed for COc1ccc2c(c1S(=O)(=O)Nc1noc3cc(Cn4cccn4)c(F)c(OC)c13)OCCCN2C [Compound 115] ?
## Output 0.408
